Each recorded value in this set is attributed to the supplement of paper PMC9170038.

System: MS2 coat protein
Assay: apparent KD of MS2 coat protein; higher = weaker reporter binding
Conditions: Eterna round: R107; input ligand: theophylline 2 mM
endpoint: apparent KD of MS2 coat protein (nM)
Entry rule: numbers only, all in nM.

Worked examples, 5 sequences total:
| sequence-data | assayed-target | apparent KD of MS2 coat protein (nM) |
| --- | --- | --- |
| AGCUCGCAUCCUCUAGCGUCAAAGACGCGUCGAGGACCGGUACGGCCGCCACUCGACUUGAGGAUCACCCAGGUCAAAGCGAGCA [TrypAX 13 #SwitchBubble #AlternativeMS2 #MS2Late #CuTurnoff] | MS2 coat protein | 631 |
| UCGUAGCUAGGAAGGAGCGCAUACUUCACAUGAGGAUCACCCAUGUCGAGACGUGAGUCAGUGCAGGUAGGUCGCCUAGCUAUGA [Same State - Arginine B (Freestyle 26)] | MS2 coat protein | 21.5 |
| AAAGGACAUGAGGAUCACCCAUGUCUCGAUACCAGCCGAUCAUCAGGCCCUUGGCAGCGAGACAAGGGUCAUGGAUCGCGGUUCU [Beerusmage] | MS2 coat protein | 12.3 |
| AGCGUUCGGUUUAUGCCGGACAAUGGGUGACGAGGACCGGUACGGCCGCCACUCGGGCGCCCGGUUACAUGAGGAUCACCCAUGU [Oresrile] | MS2 coat protein | 200 |
| GGCACAUAGUCGGCCGCCACUACGUGGAGAUCGGAGUACAUGAGGAUCACCCAUGUAUGGAAGGGUAGGACCGGGACUAUGUGCC [Horalka] | MS2 coat protein | 123 |

Query GCUGCCAUACGAAGGAGCGCUGGUGUAAUGAGGCGAACAUGAGGAUCACCCAUGUGGCAUAAGCAGGUAGGUCGCGUAUGGCAGC [EAB #16] on MS2 coat protein; apparent KD of MS2 coat protein returned: 20.8

Query GGGUGUGAUCCGGAUACCAGUGAACAUGAGGAUCACCCAUGUGACCUGAGAUCGGCUCUUCACCCUUGGCAGCCGCGGUCGCAGG [Same State Theophylline B GF14] on MS2 coat protein; apparent KD of MS2 coat protein returned: 10.7

Query AGAUUCGACACGGCCGCCACUUGUGGUGGAGGGUCUUUAGUCACACAUGAGGAUCACCCAUGUACAAGGACCGGGUGUUGAGUCU [XTryp B #23] on MS2 coat protein; apparent KD of MS2 coat protein returned: 25.4

---

Test system: MS2 coat protein
Assay: apparent KD of MS2 coat protein; higher = weaker reporter binding
Conditions: Eterna round: R101; input ligand: none
Each item that follows carries a reported apparent KD of MS2 coat protein.
Units required after the number.

| sequence-data | apparent KD of MS2 coat protein |
| --- | --- |
| GGUCGACUUCAAGGAUAUGGACUGCAAAGCAGUCCAGAAGGUGAGGAUCACCCACCUACGGUCAGGAAACUGACCGAUCGACCA [#SharedSequence - ExNG1-4] (puzzle (switch architecture): Exclusion NG 1) | 10.5 nM |

Now let's try a different one.
Looking up UAAAUAAAUCCUAGAGGAUCACCCUAGGAUAUCACCGUCGAGGUGCCAUAAUGGCACCUCGACGGUGAGAAGGAGGGAAAUAAA [#SharedSequence - SLExNG3: 3] (puzzle (switch architecture): Small Loop Exclusion NG 3) , I found its apparent KD of MS2 coat protein recorded as 9.97 nM
